Below, each of the compounds is paired with its reported viability at 28.5 h, 10 µM value.
Assay: in vitro
Conditions: human, hela cells, % viability

Please review the entries below; each comes with its answer.
Compound	Experimental endpoint	Endpoint value
CC(NC(=O)N1CCN(CCc2ccccc2)CC1)c1ccccc1 (centres unmarked) [CBK158935]	viability at 28.5 h, 10 µM	85.1%
Cn1nc2c(c1C(=O)N1CCc3[nH]c4ccccc4c3C1)CCCC2 [CBK281844]	viability at 28.5 h, 10 µM	79.7%
O=C(O)C1C2C=CC3(CN(C4CCCCC4)C(=O)C13)O2 (centres unmarked) [CBK287248]	viability at 28.5 h, 10 µM	84.8%
C[C@H](NC(=O)N1CCC2(CC1)NCCc1c2[nH]c2ccc(Cl)cc12)c1ccccc1 [CBK047046]	viability at 28.5 h, 10 µM	90%
O=C(c1cncnc1)N1CCCc2ccccc21 [CBK200259]	viability at 28.5 h, 10 µM	91.4%
O=C(CSCc1ccccc1Cl)Nc1ccc(-c2nnc(-c3ccccc3)o2)cc1 [CBK268656]	viability at 28.5 h, 10 µM	111%
CC(O)c1nc2ccc(Cl)cc2[nH]1 (centres unmarked) [CBK115573]	viability at 28.5 h, 10 µM	102%
O=C(N/N=C\c1cccs1)c1n[nH]c2c1CCCC2 [CBK261667]	viability at 28.5 h, 10 µM	110%

[ask] State the recorded viability at 28.5 h, 10 µM for this entry: OC(COc1ccc2c(c1)OCO2)CN1CCN(C(c2ccccc2)c2ccccc2)CC1 (centres unmarked) [CBK074854C]
[reply] 87.5%
